- assayed_system: adenylate cyclase toxin (ACT from B. pertussis) (Bordetella pertussis)
- Type: biochemical
- measurement_setup: read-out: IC50 ACT
Quick reference: IC50 of the listed items.
Just the number in nM, nothing appended.

INSERT INTO measurements (molecule, assayed_system, unit, test_result) VALUES
  ('Nc1nc(-c2cccc(OCc3ccccc3)c2)c(CCOCP(=O)(O)OP(=O)(O)OP(=O)(O)O)s1 [10c]', 'adenylate cyclase toxin (ACT from B. pertussis) (Bordetella pertussis)', 'nM', 16.7),
  ('Nc1nc(-c2cccc(F)c2)c(CCOCP(=O)(O)OP(=O)(O)OP(=O)(O)O)s1 [10f]', 'adenylate cyclase toxin (ACT from B. pertussis) (Bordetella pertussis)', 'nM', 12),
  ('CCCCOc1cccc(-c2nc(N)sc2CCOCP(=O)(O)OP(=O)(O)OP(=O)(O)O)c1 [10b]', 'adenylate cyclase toxin (ACT from B. pertussis) (Bordetella pertussis)', 'nM', 18.4);

Would you mind telling me what IC50 value was observed for CC(C)Oc1ccc(-c2nc(N)sc2CCOCP(=O)(O)OP(=O)(O)OP(=O)(O)O)cc1 [10d] ? 17.1

Please give the result for Nc1nc(-c2ccccc2)c(CCOCP(=O)(O)OP(=O)(O)OP(=O)(O)O)s1 [10a] too. 25.2

Entry to check: CNS(=O)(=O)c1cccc(-c2nc(N)sc2CCOCP(=O)(O)OP(=O)(O)OP(=O)(O)O)c1 [10g] 15.4

Now the same for CNC(=O)c1ccc(-c2nc(N)sc2CCOCP(=O)(O)OP(=O)(O)OP(=O)(O)O)cc1 [10h] 116

Please give the result for Nc1nc(-c2ccccc2F)c(CCOCP(=O)(O)OP(=O)(O)OP(=O)(O)O)s1 [10e] too. 312
